Data origin, for the record: patent US20200261427A1

# ASSAY_INFO: physchem
# MEASUREMENT_CONTEXT: 10% TC and 10% DMI aqueous solutions versus water, pH 4.5, aqueous with cosolvent or surfactant or cyclodextrin, thermodynamic from solid
OBSERVATION_TYPE: solubility

Asked: Dear colleague, please send me the reported solubility for CO[C@H]1C[C@@H]2CC[C@@H](C)[C@@](O)(O2)C(=O)C(=O)N2CCCC[C@H]2C(=O)O[C@H]([C@H](C)C[C@@H]2CC[C@@H](O)[C@H](OC)C2)CC(=O)[C@H](C)/C=C(\C)[C@@H](O)[C@@H](OC)C(=O)[C@H](C)C[C@H](C)/C=C/C=C/C=C/1C [Rapamycin, rapamycin] when you can.
Given back: 1.5 to 2 µg/mL

---

# ASSAY_INFO: physchem
# MEASUREMENT_CONTEXT: 10% propylene glycol (PG) aqueous solution, citrate buffered, pH 4.5, aqueous with cosolvent or surfactant or cyclodextrin, thermodynamic from solid
OBSERVATION_TYPE: solubility (µg/mL)
One number for each entry, in µg/mL.

Asked: Dear colleague, please send me the reported solubility for CO[C@H]1C[C@@H]2CC[C@@H](C)[C@@](O)(O2)C(=O)C(=O)N2CCCC[C@H]2C(=O)O[C@H]([C@H](C)C[C@@H]2CC[C@@H](O)[C@H](OC)C2)CC(=O)[C@H](C)/C=C(\C)[C@@H](O)[C@@H](OC)C(=O)[C@H](C)C[C@H](C)/C=C/C=C/C=C/1C when you can.
Given back: 2.9

---

# ASSAY_INFO: physchem
# MEASUREMENT_CONTEXT: water, citrate buffered, pH 4.5, aqueous buffer, thermodynamic from solid
OBSERVATION_TYPE: solubility (µg/mL)
Numbers only, in µg/mL.

Asked: Dear colleague, please send me the reported solubility for CO[C@H]1C[C@@H]2CC[C@@H](C)[C@@](O)(O2)C(=O)C(=O)N2CCCC[C@H]2C(=O)O[C@H]([C@H](C)C[C@@H]2CC[C@@H](O)[C@H](OC)C2)CC(=O)[C@H](C)/C=C(\C)[C@@H](O)[C@@H](OC)C(=O)[C@H](C)C[C@H](C)/C=C/C=C/C=C/1C [Rapamycin, rapamycin] when you can.
Given back: 2.9
